solubility at 24 h overview
- test: Aqueous solubility of the compound at pH 7.4 after 24 hrs
- Format: physicochemical
- experimentalParameters: aqueous medium

[
  {
    "inputSmiles": "CC(C)[C@H](NC(=O)c1cc(-c2ccc(Nc3nc4ccc(F)cc4s3)cc2)no1)C(=O)O",
    "u": "µg/mL",
    "solubility at 24 h": 60
  },
  {
    "inputSmiles": "COc1ccc(NC(=O)Nc2ccc(-c3cc(C(=O)N[C@H](C(=O)O)C(C)C)on3)cc2)cc1",
    "u": "µg/mL",
    "solubility at 24 h": 430
  },
  {
    "inputSmiles": "CC(C)[C@H](NC(=O)c1cc(-c2ccc(NC(=O)Nc3ccc(Cl)cc3Oc3ccccc3)cc2)no1)C(=O)O",
    "u": "µg/mL",
    "solubility at 24 h": 140
  },
  {
    "inputSmiles": "Cc1ccc(NC(=O)Nc2ccc(-c3cc(C(=O)N[C@H](C(=O)O)C(C)C)on3)cc2)cc1",
    "u": "µg/mL",
    "solubility at 24 h": 380
  },
  {
    "inputSmiles": "CC(C)[C@H](NC(=O)c1ccc(-c2ccc(Nc3nc4ccc(F)cc4s3)cc2)cc1)C(=O)O",
    "u": "µg/mL",
    "solubility at 24 h": 10
  }
]

---

- targetOfAssay: Diacylglycerol O-acyltransferase 1 (Homo sapiens) (UniProt O75907)
- Sequence (O75907 whole entry, looked up): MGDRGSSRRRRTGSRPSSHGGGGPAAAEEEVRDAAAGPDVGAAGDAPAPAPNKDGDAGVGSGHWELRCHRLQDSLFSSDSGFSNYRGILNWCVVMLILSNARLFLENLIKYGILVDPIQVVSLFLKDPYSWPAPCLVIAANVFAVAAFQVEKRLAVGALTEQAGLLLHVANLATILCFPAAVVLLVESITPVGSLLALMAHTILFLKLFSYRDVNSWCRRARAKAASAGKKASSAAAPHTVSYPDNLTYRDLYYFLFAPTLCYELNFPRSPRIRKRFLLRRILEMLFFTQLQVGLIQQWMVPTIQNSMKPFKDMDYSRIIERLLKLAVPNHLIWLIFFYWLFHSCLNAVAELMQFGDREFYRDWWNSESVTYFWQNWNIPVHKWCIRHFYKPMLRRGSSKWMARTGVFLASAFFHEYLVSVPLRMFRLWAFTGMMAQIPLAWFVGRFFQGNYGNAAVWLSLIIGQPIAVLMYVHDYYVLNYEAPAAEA
- test: Inhibition of human DGAT1 assessed as conversion of [14C]-oleoyl-CoA to [14C]-triglyceride at 1 uM after 10 mins by scintillation counting
Parameter threshold = 80%. Response is 1 when inhibition meets or exceeds it, else 0.

[
  {
    "inputSmiles": "CC(C)[C@H](NC(=O)c1nc(-c2ccc(NC(=O)Nc3ccc(F)cc3F)cc2)no1)C(=O)O",
    "answerLabel": 0
  },
  {
    "inputSmiles": "CC(C)[C@H](NC(=O)c1cc(-c2ccc(NC(=O)Nc3cccc(Cl)c3)cc2)no1)C(=O)O",
    "answerLabel": 1
  },
  {
    "inputSmiles": "CC(C)[C@H](NC(=O)c1cc(-c2ccc(NC(=O)Nc3ccccc3Cl)cc2)no1)C(=O)O",
    "answerLabel": 1
  },
  {
    "inputSmiles": "CC(C)[C@H](NC(=O)c1cc(-c2ccc(NC(=O)Nc3ccc(Cl)cc3)cc2)no1)C(=O)O",
    "answerLabel": 1
  },
  {
    "inputSmiles": "CC(C)[C@H](NC(=O)c1ncc(-c2ccc(NC(=O)Nc3ccc(Cl)cc3)cc2)o1)C(=O)O",
    "answerLabel": 0
  },
  {
    "inputSmiles": "CC(C)[C@H](NC(=O)c1cc(-c2ccc(NC(=O)Nc3ccc(Cl)cc3Oc3ccccc3)cc2)no1)C(=O)O",
    "answerLabel": 1
  },
  {
    "inputSmiles": "CC(C)[C@H](NC(=O)c1cc(-c2ccc(NS(=O)(=O)c3c(F)cccc3F)cc2)no1)C(=O)O",
    "answerLabel": 0
  },
  {
    "inputSmiles": "CC(C)[C@H](NC(=O)c1ncc(-c2ccc(NC(=O)Nc3ccc(Cl)cc3Oc3ccccc3)cc2)o1)C(=O)O",
    "answerLabel": 1
  },
  {
    "inputSmiles": "Cc1ccc(NC(=O)Nc2ccc(-c3cnc(C(=O)N[C@H](C(=O)O)C(C)C)o3)cc2)cc1C",
    "answerLabel": 0
  },
  {
    "inputSmiles": "CC(C)[C@H](NC(=O)c1cc(-c2ccc(NC(=O)C(=O)Nc3cccc(C(F)(F)F)c3)cc2)no1)C(=O)O",
    "answerLabel": 0
  },
  {
    "inputSmiles": "CC(C)[C@H](NC(=O)c1cc(-c2ccc(NC(=O)Nc3ccc(F)cc3F)cc2)no1)C(=O)O",
    "answerLabel": 1
  },
  {
    "inputSmiles": "CC(C)[C@H](NC(=O)c1cc(-c2ccc(NC(=S)Nc3ccccc3F)cc2)no1)C(=O)O",
    "answerLabel": 0
  },
  {
    "inputSmiles": "Cc1ccc(NC(=O)Nc2ccc(-c3cc(C(=O)N[C@H](C(=O)O)C(C)C)on3)cc2)cc1C",
    "answerLabel": 1
  },
  {
    "inputSmiles": "CC(C)[C@H](NC(=O)c1nc(-c2ccc(NC(=O)Nc3ccccc3Cl)cc2)no1)C(=O)O",
    "answerLabel": 0
  },
  {
    "inputSmiles": "CC(C)[C@H](NC(=O)c1cc(-c2ccc(NC(=O)Nc3cccc(C(F)(F)F)c3)cc2)no1)C(=O)O",
    "answerLabel": 1
  }
]

---

inhibition overview
- targetOfAssay: Diacylglycerol O-acyltransferase 1 (Homo sapiens)
- test: Inhibition of human DGAT1 assessed as conversion of [14C]-oleoyl-CoA to [14C]-triglyceride at 1 uM after 10 mins by scintillation counting

[
  {
    "inputSmiles": "Cc1ccccc1S(=O)(=O)NC(=O)Nc1ccc(-c2cc(C(=O)N[C@H](C(=O)O)C(C)C)on2)cc1",
    "targetOfAssay": "Diacylglycerol O-acyltransferase 1 (Homo sapiens)",
    "inhibition [%]": 26
  },
  {
    "inputSmiles": "CC(C)[C@H](NC(=O)c1ncc(-c2ccc(NC(=O)Nc3ccc(Cl)cc3F)cc2)o1)C(=O)O",
    "targetOfAssay": "Diacylglycerol O-acyltransferase 1 (Homo sapiens)",
    "inhibition [%]": 70
  },
  {
    "inputSmiles": "CC(C)[C@H](NC(=O)c1nc(-c2ccc(NC(=O)Nc3cccc(Cl)c3)cc2)no1)C(=O)O",
    "targetOfAssay": "Diacylglycerol O-acyltransferase 1 (Homo sapiens)",
    "inhibition [%]": 71
  },
  {
    "inputSmiles": "CC(C)[C@H](NC(=O)c1nc(-c2ccc(NC(=O)Nc3ccc(F)cc3)cc2)no1)C(=O)O",
    "targetOfAssay": "Diacylglycerol O-acyltransferase 1 (Homo sapiens)",
    "inhibition [%]": 61
  },
  {
    "inputSmiles": "CC(C)[C@H](NC(=O)c1cc(-c2ccc(NC(=O)[C@H](O)c3ccccc3)cc2)no1)C(=O)O",
    "targetOfAssay": "Diacylglycerol O-acyltransferase 1 (Homo sapiens)",
    "inhibition [%]": 59
  },
  {
    "inputSmiles": "CC(C)[C@H](NC(=O)c1nc(-c2ccc(NC(=O)Nc3ccc(Cl)cc3)cc2)no1)C(=O)O",
    "targetOfAssay": "Diacylglycerol O-acyltransferase 1 (Homo sapiens)",
    "inhibition [%]": 40
  },
  {
    "inputSmiles": "Cc1ccc(NC(=O)Nc2ccc(-c3noc(C(=O)N[C@H](C(=O)O)C(C)C)n3)cc2)cc1",
    "targetOfAssay": "Diacylglycerol O-acyltransferase 1 (Homo sapiens)",
    "inhibition [%]": 61
  },
  {
    "inputSmiles": "CC(C)[C@H](NC(=O)c1cc(-c2ccc(OCc3ccc(F)cc3)cc2)no1)C(=O)O",
    "targetOfAssay": "Diacylglycerol O-acyltransferase 1 (Homo sapiens)",
    "inhibition [%]": 18
  },
  {
    "inputSmiles": "CC(C)[C@H](NC(=O)c1ncc(-c2ccc(NC(=O)Nc3cccc(Cl)c3)cc2)o1)C(=O)O",
    "targetOfAssay": "Diacylglycerol O-acyltransferase 1 (Homo sapiens)",
    "inhibition [%]": 72
  },
  {
    "inputSmiles": "CC(C)[C@H](NC(=O)c1ncc(-c2ccc(NC(=O)Nc3ccccc3Cl)cc2)o1)C(=O)O",
    "targetOfAssay": "Diacylglycerol O-acyltransferase 1 (Homo sapiens)",
    "inhibition [%]": 80
  },
  {
    "inputSmiles": "CC(C)[C@H](NC(=O)c1nc(-c2ccc(NC(=O)Nc3cccc(C(F)(F)F)c3)cc2)no1)C(=O)O",
    "targetOfAssay": "Diacylglycerol O-acyltransferase 1 (Homo sapiens)",
    "inhibition [%]": 48
  },
  {
    "inputSmiles": "CC(C)[C@H](NC(=O)c1cc(-c2ccc(NC(=O)c3ccc(F)cc3)cc2)no1)C(=O)O",
    "targetOfAssay": "Diacylglycerol O-acyltransferase 1 (Homo sapiens)",
    "inhibition [%]": 44
  },
  {
    "inputSmiles": "CC(C)[C@H](NC(=O)c1ncc(-c2ccc(NC(=O)Nc3cccc(C(F)(F)F)c3)cc2)o1)C(=O)O",
    "targetOfAssay": "Diacylglycerol O-acyltransferase 1 (Homo sapiens)",
    "inhibition [%]": 75
  },
  {
    "inputSmiles": "CC(C)[C@H](NC(=O)c1cc(-c2ccc(NC(=O)Nc3ccc(Cl)cc3F)cc2)no1)C(=O)O",
    "targetOfAssay": "Diacylglycerol O-acyltransferase 1 (Homo sapiens)",
    "inhibition [%]": 90
  }
]
